Each entry below lists one item and its recorded selectivity ratio value.
# method-summary: Selectivity index, ratio of EC50 for human HepG2 cells to EC50 for promastigote stage of Leishmania infantum MCAN/ES/89/IPZ229/1/89 infected in human HepG2 cells
# Type: toxicity, cell-based
# assay-setup: read-out: Ratio EC50
Form rule: numeric answer, no unit written next to it.

COc1cc(-n2cc(CCCCN)nn2)ccc1-c1nc(CCc2ccccc2)cs1; 1.8

Task: Please indicate selectivity ratio recorded for NCCNCc1nccn1-c1ccc(-c2nc(CCc3ccc4ccccc4c3)cs2)c(OCCN2CCNC2=O)c1
Output: 2.1

---

# assayed-system: Glutathione reductase, mitochondrial (Homo sapiens)
# method-summary: Inhibition of recombinant human GR oxidoreductase activity by DTNB-reagent based spectrophotometric method
The source made the active and inactive calls. The rule behind the calls is not given here.
recorded-endpoint: inhibition

Worked set:
NCCCCc1cn(-c2ccc(-c3nc(-c4ccccc4)cs3)c(OCCN3CCNC3=O)c2)nn1; inactive
NCCCCc1cn(-c2ccc(-c3nc(-c4ccccc4)c(-c4ccccc4)s3)c(OCCN3CCNC3=O)c2)nn1; inactive
NCCCCc1cn(-c2ccc(-c3nc(CCc4ccc(-c5ccccc5)cc4)cs3)c(OCCN3CCNC3=O)c2)nn1.O=C(O)C(F)(F)F; inactive
NCCCCc1cn(-c2ccc(-c3nc(CCc4ccc5ccccc5c4)cs3)c(OCCN3CCNC3=O)c2)nn1; inactive

Moving on to another compound below.
Task: Identify the reported inhibition for the following entry. NCCCCc1cn(-c2ccc(-c3nc(CCc4ccccc4)cs3)c(OCCN3CCNC3=O)c2)nn1.O=C(O)C(F)(F)F
Output: inactive

---

# method-summary: Selectivity index, ratio of EC50 for human HepG2 cells to EC50 for axenic amastigote stage of Leishmania infantum MCAN/ES/89/IPZ229/1/89 infected in human HepG2 cells
# Format: toxicity, cell-based
# assay-setup: read-out: Ratio EC50
Listed compounds paired with reported selectivity ratio
// return a plain number; no unit text

NCCCCc1cn(-c2ccc(-c3nc(CCc4ccc(-c5ccccc5)cc4)c(-c4ccccc4)s3)c(OCCN3CCNC3=O)c2)nn1; 1.3
COc1cc(-n2cc(CCCCN)nn2)ccc1-c1nc(CCc2ccc(-c3ccccc3)cc2)cs1; 1.9
NCCCCc1cn(-c2ccc(-c3nc(-c4ccc(-c5ccccc5)cc4)c(-c4ccccc4)s3)c(OCCN3CCNC3=O)c2)nn1; 1.8

Task: Consider the compound NCCNCc1nccn1-c1ccc(-c2nc(CCc3ccc4ccccc4c3)cs2)c(OCCN2CCNC2=O)c1 and give its recorded selectivity ratio.
Output: 2.1

# credit: ChEMBL document CHEMBL4823264
